TEST_TARGET: T1, CD3 epsilon homodimer protein (UniProt P07766 23-126)
T1 construct: also called CD3 (CD3 epsilon)
T1 sequence (P07766 23-126): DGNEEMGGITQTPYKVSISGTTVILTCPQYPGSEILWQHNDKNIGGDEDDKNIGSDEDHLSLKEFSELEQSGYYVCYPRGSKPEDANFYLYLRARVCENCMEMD
TEST_DESCRIPTION: SPR, antibody over immobilised CD3e homodimer;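 note: SPR at 25 °C with CD3 epsilon homodimer amine-coupled to a CM4 sensor chip and antibody flowed over as analyte in HBS-EP+ running buffer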
Below: a set of entries, each annotated with reported KD ratio to GLS3000.
Lab note: write the figure by itself, no unit.

Some binders with recorded KD ratio to GLS3000:
# BINDER, KD ratio to GLS3000
measured = [
    ("CE115HA000/GLS3000 Q90D (antibody, IgG1, name in Kabat numbering, V domains shown, one-arm IgG1) VH: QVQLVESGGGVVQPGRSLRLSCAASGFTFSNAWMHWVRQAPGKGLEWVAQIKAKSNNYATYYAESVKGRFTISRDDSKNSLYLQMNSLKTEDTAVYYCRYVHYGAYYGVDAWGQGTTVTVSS VL: DIVMTQSPLSLPVTPGEPASISCRSSQSLVHSNRNTYLHWYQQKPGQAPRLLIYKVSNRFSGVPDRFSGSGSGTDFTLKISRVEAEDVGVYYCGDGTQVPYTFGQGTKLEIK", 11.1),
    ("CE115HA000/GLS3000 L27bP (antibody, IgG1, name in Kabat numbering, V domains shown, one-arm IgG1) VH: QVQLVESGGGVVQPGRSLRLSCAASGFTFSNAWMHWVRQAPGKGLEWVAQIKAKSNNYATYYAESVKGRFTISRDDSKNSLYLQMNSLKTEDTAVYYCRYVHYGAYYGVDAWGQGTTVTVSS VL: DIVMTQSPLSLPVTPGEPASISCRSSQSPVHSNRNTYLHWYQQKPGQAPRLLIYKVSNRFSGVPDRFSGSGSGTDFTLKISRVEAEDVGVYYCGQGTQVPYTFGQGTKLEIK", 0.96),
    ("CE115HA000/GLS3000 G91D (antibody, IgG1, name in Kabat numbering, V domains shown, one-arm IgG1) VH: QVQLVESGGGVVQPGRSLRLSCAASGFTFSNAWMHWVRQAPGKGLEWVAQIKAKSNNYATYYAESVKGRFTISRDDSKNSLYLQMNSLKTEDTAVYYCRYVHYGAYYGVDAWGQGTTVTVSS VL: DIVMTQSPLSLPVTPGEPASISCRSSQSLVHSNRNTYLHWYQQKPGQAPRLLIYKVSNRFSGVPDRFSGSGSGTDFTLKISRVEAEDVGVYYCGQDTQVPYTFGQGTKLEIK", 44.8),
    ("CE115HA000/GLS3000 S56A (antibody, IgG1, name in Kabat numbering, V domains shown, one-arm IgG1) VH: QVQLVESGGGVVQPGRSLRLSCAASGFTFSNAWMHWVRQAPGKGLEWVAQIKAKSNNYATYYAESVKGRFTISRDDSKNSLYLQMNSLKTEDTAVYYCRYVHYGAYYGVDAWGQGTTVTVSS VL: DIVMTQSPLSLPVTPGEPASISCRSSQSLVHSNRNTYLHWYQQKPGQAPRLLIYKVSNRFAGVPDRFSGSGSGTDFTLKISRVEAEDVGVYYCGQGTQVPYTFGQGTKLEIK", 1.18),
    ("CE115HA000/GLS3000 R54E (antibody, IgG1, name in Kabat numbering, V domains shown, one-arm IgG1) VH: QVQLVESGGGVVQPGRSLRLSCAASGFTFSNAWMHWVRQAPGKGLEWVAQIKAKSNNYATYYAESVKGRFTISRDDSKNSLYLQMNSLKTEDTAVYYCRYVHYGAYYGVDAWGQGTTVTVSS VL: DIVMTQSPLSLPVTPGEPASISCRSSQSLVHSNRNTYLHWYQQKPGQAPRLLIYKVSNEFSGVPDRFSGSGSGTDFTLKISRVEAEDVGVYYCGQGTQVPYTFGQGTKLEIK", 0.84),
]

Would you mind telling me what KD ratio to GLS3000 value was observed for CE115HA000/GLS3000 L33D (antibody, IgG1, name in Kabat numbering, V domains shown, one-arm IgG1) VH: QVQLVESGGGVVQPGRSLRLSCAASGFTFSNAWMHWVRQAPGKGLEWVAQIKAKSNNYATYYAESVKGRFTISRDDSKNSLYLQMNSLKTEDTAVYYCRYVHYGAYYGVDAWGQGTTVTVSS VL: DIVMTQSPLSLPVTPGEPASISCRSSQSLVHSNRNTYDHWYQQKPGQAPRLLIYKVSNRFSGVPDRFSGSGSGTDFTLKISRVEAEDVGVYYCGQGTQVPYTFGQGTKLEIK ?
37.5

Query CE115HA000/GLS3000 N28P (antibody, IgG1, name in Kabat numbering, V domains shown, one-arm IgG1) VH: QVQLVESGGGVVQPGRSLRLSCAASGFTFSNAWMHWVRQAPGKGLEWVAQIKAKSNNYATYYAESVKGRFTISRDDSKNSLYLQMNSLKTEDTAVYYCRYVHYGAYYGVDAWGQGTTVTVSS VL: DIVMTQSPLSLPVTPGEPASISCRSSQSLVHSPRNTYLHWYQQKPGQAPRLLIYKVSNRFSGVPDRFSGSGSGTDFTLKISRVEAEDVGVYYCGQGTQVPYTFGQGTKLEIK next
4.18

Query CE115HA000/GLS3000 S56E (antibody, IgG1, name in Kabat numbering, V domains shown, one-arm IgG1) VH: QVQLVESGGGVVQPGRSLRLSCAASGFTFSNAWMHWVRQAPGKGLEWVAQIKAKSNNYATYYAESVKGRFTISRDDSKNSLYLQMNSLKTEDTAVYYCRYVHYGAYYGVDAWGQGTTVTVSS VL: DIVMTQSPLSLPVTPGEPASISCRSSQSLVHSNRNTYLHWYQQKPGQAPRLLIYKVSNRFEGVPDRFSGSGSGTDFTLKISRVEAEDVGVYYCGQGTQVPYTFGQGTKLEIK next
0.91

Query CE115HA000/GLS3000 L27bM (antibody, IgG1, name in Kabat numbering, V domains shown, one-arm IgG1) VH: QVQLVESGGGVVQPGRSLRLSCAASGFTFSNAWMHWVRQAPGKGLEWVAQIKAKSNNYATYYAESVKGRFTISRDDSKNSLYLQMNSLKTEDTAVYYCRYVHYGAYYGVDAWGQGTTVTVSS VL: DIVMTQSPLSLPVTPGEPASISCRSSQSMVHSNRNTYLHWYQQKPGQAPRLLIYKVSNRFSGVPDRFSGSGSGTDFTLKISRVEAEDVGVYYCGQGTQVPYTFGQGTKLEIK next
1.31

Query CE115HA000/GLS3000 G89I (antibody, IgG1, name in Kabat numbering, V domains shown, one-arm IgG1) VH: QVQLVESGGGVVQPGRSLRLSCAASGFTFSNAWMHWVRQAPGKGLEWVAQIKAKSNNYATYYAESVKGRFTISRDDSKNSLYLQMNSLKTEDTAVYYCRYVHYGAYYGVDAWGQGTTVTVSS VL: DIVMTQSPLSLPVTPGEPASISCRSSQSLVHSNRNTYLHWYQQKPGQAPRLLIYKVSNRFSGVPDRFSGSGSGTDFTLKISRVEAEDVGVYYCIQGTQVPYTFGQGTKLEIK next
1.11
